Tested on: NCI-H226 lung
Experiment: NCI tumour cell line growth inhibition, 48 h
TGI listing for selected compounds.
ATTRIBUTE_MEASURED: TGI

Cc1ccnc2nc(N)ccc12 = > 100 µM
COc1cccc(/C(Cl)=C(\C=O)c2cccc(OC)c2)c1 = 24.8 µM
CCOC(=O)C(C)Sc1nnc(COc2ccccc2OC)n1-c1ccccc1 (stereo not drawn) = > 100 µM
CCOC(=O)CCC1(C(=O)OCC)CCCC1=O (stereo not drawn) = > 100 µM
O=C(/C=C/c1ccc(O)c(O)c1)NCc1c[nH]c2ccccc12 = > 100 µM
N#C/C(=C\c1cccc(O)c1O)C(N)=O = 88 µM
CN1N=C(c2ccncc2)OC1c1cccc(C(F)(F)F)c1 (stereo not drawn) = > 100 µM
C[Si](C)(c1ccc(C(=O)O)cc1)c1ccc(C(=O)O)cc1 = > 100 µM
CSc1ncc(Br)c(Sc2nc(N)nc3nc[nH]c23)n1 = 29.5 µM
CCCCCN(CCCCC)CC(O)c1cc(Cl)ccc1OC (stereo not drawn) = 23.6 µM
CC1(c2cc3c(cc2Br)OCO3)SCCCS1 = > 100 µM
O=c1cc(-c2ccc(O)cc2)oc2cc(O[C@@H]3O[C@H](CO)[C@@H](O)[C@H](O)[C@H]3O)cc(O)c12 = > 100 µM
CCCCCCCCOC(=O)c1c(C)[nH]c(/C=C2\N=C(c3ccc[nH]3)C=C2OC)c1C = 6.26 µM

----------
Test system: SNB-75 CNS
Assay: NCI tumour cell line growth inhibition, 48 h
GI50 listing for selected compounds.
ATTRIBUTE_MEASURED: GI50

O=C(Nc1ccc(F)cc1F)c1cc(Cl)ccc1O = 1090 nM
CN1CCN(CCOc2ccc(-c3cnc4c(-c5cccc(F)c5)cnn4c3)cc2)CC1 = 1390 nM
CCOC(=O)c1c(C)n(Cc2ccc(Cl)cc2Cl)c2c1cc1oc(=O)c(=O)n3cnc2c13 = 3390 nM
O=S1(=O)N(Cc2ccccc2)[C@@H](Cc2ccccc2)[C@H](O)[C@H](O)[C@H](Cc2ccccc2)N1Cc1ccccc1 = 2310 nM
COc1ccc2c(c1OC)-c1c(c3ccc([N+](=O)[O-])cc3c(=O)n1CCCBr)C2=O = 26800 nM

----------
TGI listing for selected compounds.
Tested on: NCI-H522 lung
Assay: NCI tumour cell line growth inhibition, 48 h
ATTRIBUTE_MEASURED: TGI (µM)

CN(C)CCNC(=O)c1ccc(-c2nc3ccc4[nH]ncc4c3c3c2C2CCC3C2)cc1 (stereo unspecified) = 4.33
CCOc1ccc2c(c1)C(=O)c1c-2n(CCCBr)c(=O)c2cc([N+](=O)[O-])ccc12 = 72.8
COC(=O)NNC(c1ccc(Cl)cc1)c1ccc(Cl)cc1 = 38.7
Cc1ccc(-n2cc(-c3ccc(Cl)cc3)c3c(NN)ncnc32)cc1 = 15.8
CN(C)c1nc(=NCc2ccco2)ss1 = 3.11
Cc1ccc(S(=O)(=O)N=NC=C2c3ccccc3N(O)c3ccccc32)cc1 = 3.86
COC(=O)CCc1c(Cc2ccc[nH]2)[nH]c(C(=O)OCc2ccccc2)c1C = 54.4
O=Nn1c2ccccc2c2cc([N+](=O)[O-])ccc21 = 29.1
COC(=O)C12CC(NC(=O)c3csc([C@@H](C[C@H](C(C)C)N(C)C(=O)[C@@H](NC(=O)[C@H]4CCCCN4C)C4CC4)OC(C)=O)n3)(C1)C2 = 3.15

----------
System: A549 NSCLC
Assay: NCI tumour cell line growth inhibition, 48 h
TGI listing for selected molecules.
ATTRIBUTE_MEASURED: TGI

Cc1cc(NC(=O)C2C3C=CC(O3)C2C(=O)O)no1 (stereo not drawn) = > 100 µM
Cc1cc(C)c2c(n1)sc1c(N)ncnc12 = > 25 µM
COC(=O)C1C(=O)CC2CCCCC21 (stereo not drawn) = > 100 µM
C=C(C)C1CC/C(C)=C/CC[C@]2(C)O[C@@H]2CCC2=CC1OC2=O (stereo partly drawn) = > 100 µM
Cc1cccc2c1c1ccc3c(c1n2C)C(=O)C=CC3=O = 37.7 µM
O=NN(CCF)C(=O)NC1CC2CCC1C2 (stereo not drawn) = > 100 µM
CCc1ccccc1NC(=O)/C=C/c1ccccc1 = > 100 µM
COc1ccc(Nc2nc3ccccc3c3occc23)cc1 = > 50 µM
NC(=O)c1cc(N(CCO)CCO)c([N+](=O)[O-])cc1[N+](=O)[O-] = > 100 µM
N#C/C(=C\c1cccc(O)c1O)C(N)=O = > 100 µM
Nc1nccc(NCC2(CO)CCC2)n1 = > 100 µM
CCCn1cnc2c(SCC(=O)O)nc(N)nc21 = > 100 µM
CC(=O)NC(CCCCN)C(=O)NCc1ccccc1 (stereo not drawn) = > 100 µM

----------
System: HCT-15 colon
Assay: NCI tumour cell line growth inhibition, 48 h
TGI listing for selected compounds.
ATTRIBUTE_MEASURED: TGI (µM)

N#C/C(=C\c1ccc([N+](=O)[O-])s1)c1nc2cc(Cl)ccc2s1 = 0.622
OCC(CCc1ccccc1I)C1=CCC2(CC1)OCCO2 (stereo unspecified) = 54.7
C=C1C(=O)O[C@H]2[C@H]1CC/C(COC(=O)NCc1ccc(OC)cc1)=C\CC[C@@]1(C)O[C@@H]21 = 1.87
CN1CCN(CCOc2ccc(-c3cnc4c(-c5cccc(F)c5)cnn4c3)cc2)CC1 = 2.92
Clc1cccc(N2CCN(CCCN3CCc4c([nH]c5ccccc45)C3c3cccnc3)CC2)c1 (stereo unspecified) = 21.8
O=C(Nc1ccc(-n2ccc3c(NC(=O)c4ccccc4)ncnc32)cc1)c1cccc(C(F)(F)F)c1 = 24.8
COC(=O)CCc1c(Cc2ccc[nH]2)[nH]c(C(=O)OCc2ccccc2)c1C = 36.3
CCOC(=O)c1c(C)n(Cc2ccc(Cl)cc2Cl)c2c1cc1oc(=O)c(=O)n3cnc2c13 = 27.3
CCN1CCN(Cc2ccc(NC(=O)Nc3nc4ccc(Oc5ccnc(C(=O)NC)c5)cc4s3)cc2C(F)(F)F)CC1 = 3.38
O=C1CC(C(CC(=O)c2ccccc2)c2ccccc2)C(=O)c2ccccc2N1 (stereo unspecified) = 94.9

----------
Test system: SK-MEL-2 melanoma
Test: NCI tumour cell line growth inhibition, 48 h; in the data active = GI50 below about 0.43 µM; inactive = the rest
Outcomes: active, inactive

COc1ccc(NC(=O)/C=C(C)/C=C/C=C(C)/C=C/C2=C(C)CCCC2(C)C)cc1 = inactive
C=C(C)C1CC/C(C)=C/CC[C@]2(C)O[C@@H]2CCC2=CC1OC2=O (stereo not given in full) = inactive
CC1=C2C(=CC(C)(C)[C@@H]2O)C(=O)[C@](C)(O)C12CC2 = active
NCCCCC1NC(=O)C(CC(=O)O)NC(=O)CNC(=O)C(CCCN=C(N)N)NC(=O)C(N)CSSCC(C(=O)O)NC(=O)C(CC(=O)O)NC(=O)C2CCCN2C(=O)CNC1=O (stereo not given) = inactive
O=C1C2=C(C(=O)c3cnccc31)C1C=CC2CC1 (stereo not given) = inactive

----------
Tested on: SK-MEL-5 melanoma
Assay: NCI tumour cell line growth inhibition, 48 h
ATTRIBUTE_MEASURED: GI50

O=C1C2=C(C(=O)c3cnccc31)C1C=CC2CC1 (stereo unspecified) = 1.84 µM
CN1CCN(Cc2ccc(NC(=O)c3cncc(C#Cc4cnc(N)cc4C#N)c3)cc2C(F)(F)F)CC1 = 2.29 µM
CCN(Cc1cc(F)ccc1F)c1ccc(CO)c(Cl)c1 = 10.8 µM
Cc1cc(C)c2c(n1)sc1c(N)ncnc12 = > 25 µM
COc1cc2ncnc(-n3ncc4cc(NC(=O)Nc5ccc(Cl)c(Cl)c5)ccc43)c2cc1OC = 2.09 µM
COc1ccc(Nc2nc3ccccc3c3occc23)cc1 = 5.08 µM
CCC(C)Oc1nc2c(c(=O)n(C)c(=O)n2C)n1C (stereo unspecified) = > 100 µM
CSc1ncc(Br)c(Sc2nc(N)nc3nc[nH]c23)n1 = 3.12 µM
CN(Cc1ccc(C(F)(F)F)cc1)CC(O)C(=O)Nc1ccc(Cl)cc1 (stereo unspecified) = 1.67 µM
Clc1cccc(N2CCN(CCCN3CCc4c([nH]c5ccccc45)C3c3cccnc3)CC2)c1 (stereo unspecified) = 6.79 µM
COc1ccc(NC(=O)/C=C(C)/C=C/C=C(C)/C=C/C2=C(C)CCCC2(C)C)cc1 = 9.06 µM

----------
Tested on: HL-60(TB) leukemia
Experiment: NCI tumour cell line growth inhibition, 48 h
ATTRIBUTE_MEASURED: TGI

Cc1ccc(-c2cc(O)c3nc4ccccc4n3c2)cc1 = > 100 µM
O=C1CC(C(CC(=O)c2ccccc2)c2ccccc2)C(=O)c2ccccc2N1 (stereo not given) = > 100 µM
CN(C)CCNC(=O)c1ccc(-c2nc3ccc4[nH]ncc4c3c3c2C2CCC3C2)cc1 (stereo not given) = 2.52 µM
COc1ccc(-c2cc(C(=O)Nc3cc(C(F)(F)F)cc(C(F)(F)F)c3)c3ccccc3n2)cc1 = > 100 µM
[O-]c1ccccc1C=Nc1ccc2c(c1)CCC2.[O-]c1ccccc1C=Nc1ccc2c(c1)CCC2.[O]=[U+2]=[O] = > 100 µM
CCOC(=O)c1c(C)n(Cc2ccc(Cl)cc2Cl)c2c1cc1oc(=O)c(=O)n3cnc2c13 = 28.2 µM
CCCc1c(C(=O)OCC)[nH]c(-c2ccc(-c3[nH]c(C(=O)OCC)c(CCC)c3C(=O)OCC)s2)c1C(=O)OCC = > 100 µM
Cc1c2c(cc3c1C(=O)C(=O)C1=C3OC[C@@H]1C)C(C)(C)CCC2 = 26.9 µM
O=C1C=C2CCC[C@H]3OC(=O)C[C@@]23CC1 = > 100 µM
CC(C)(C)CC(C)(C)NC(=S)NO = > 100 µM
